biological target: Sphingomyelin phosphodiesterase (Homo sapiens) (UniProt P17405); test: Inhibition of recombinant human acid sphingomyelinase expressed in HEKfreestyle293 cells using bodipy-C12 sphingomyelin as substrate and nanomolar to low micromolar concentration of compound after 1 hr by fluorescence assay
Sequence (P17405 whole entry): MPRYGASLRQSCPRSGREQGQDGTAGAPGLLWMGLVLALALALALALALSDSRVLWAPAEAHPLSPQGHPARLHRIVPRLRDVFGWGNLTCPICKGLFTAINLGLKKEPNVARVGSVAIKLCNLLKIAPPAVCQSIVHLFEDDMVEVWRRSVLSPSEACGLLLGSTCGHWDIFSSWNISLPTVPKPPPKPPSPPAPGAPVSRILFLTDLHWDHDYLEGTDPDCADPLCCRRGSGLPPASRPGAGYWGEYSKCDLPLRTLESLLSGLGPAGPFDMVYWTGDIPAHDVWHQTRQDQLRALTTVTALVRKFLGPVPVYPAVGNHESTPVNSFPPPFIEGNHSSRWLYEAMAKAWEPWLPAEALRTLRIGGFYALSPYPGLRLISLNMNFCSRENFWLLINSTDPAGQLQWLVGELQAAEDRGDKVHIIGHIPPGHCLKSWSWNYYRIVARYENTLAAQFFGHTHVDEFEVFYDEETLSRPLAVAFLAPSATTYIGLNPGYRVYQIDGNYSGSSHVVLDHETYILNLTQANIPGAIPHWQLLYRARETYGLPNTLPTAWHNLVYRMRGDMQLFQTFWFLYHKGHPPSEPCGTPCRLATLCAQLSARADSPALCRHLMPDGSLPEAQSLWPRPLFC
The source made the active and inactive calls. No rule for the calls is given here.
Property: inhibition

Would you please look over these solved cases?
What does the record list as inhibition for `CCCCCCCCOc1ccc(-c2ccc(C(=O)Nc3ccc(C(F)(F)C(F)(F)P(=O)(O)OCC)cc3)cc2)cc1` ? Active

What does the record list as inhibition for `CCCCCCCCOc1ccc(-c2ccc(C(=O)Nc3ccccc3P(=O)(OCOC(=O)C(C)(C)C)OCOC(=O)C(C)(C)C)cc2)cc1` ? Active

What does the record list as inhibition for `CCCCCCCCOc1ccc(-c2ccc(C(=O)Nc3ccc(CCP(=O)(OCC)OCC)cc3)cc2)cc1` ? Active

What does the record list as inhibition for `CCCCCCCCOc1ccc(-c2ccc(C(=O)Nc3ccc(P(=O)(OCC)OCC)cc3)cc2)cc1` ? Active

What does the record list as inhibition for `CCCCCCCCOc1ccc(-c2ccc(C(=O)Nc3ccccc3P(=O)(O)OCOC(=O)C(C)(C)C)cc2)cc1` ? Active

***
What does the record list as inhibition for `O=C(Nc1ccccc1CP(=O)(O)O)c1ccc(-c2ccc(OCc3ccccc3)cc2)cc1` ? Active

What does the record list as inhibition for `CCCCCCCCOc1ccc(-c2ccc(C(=O)N(C)c3cccc(C(F)(F)P(=O)(O)OCC)c3)cc2)cc1` ? Active

What does the record list as inhibition for `CCCCCCCCOc1ccc(-c2ccc(C(=O)Nc3cccc(C(F)(F)P(=O)(O)O)c3)cc2)cc1` ? Active
